Recorded growth inhibition by entry
EXPERIMENT_DESCRIPTION: OD615 S. cerevisiae growth inhibition, permissive medium, pilot counter-assay, permissive growth control for S. cerevisiae lifespan shortening project (AID 705)
TEST_PARAMETERS: OD615, 24 h, at 10 µM, hits give high values
// return numeric value only (unit: %, not printed)

N#Cc1nc(COc2ccc(Br)cc2)oc1N1CCCCCC1	-13.1
C(=N\n1cnnc1)/C1CCCCC1	-4.95
Fc1cc(Br)ccc1Nc1nc2ccccc2n2nnnc12	-15.9

For reference, reported growth inhibition for COCCNC(=O)Cn1cc2c(n1)CCC(C)C2 (stereo unspecified) stands at -12.9

Short answer for `Cc1c(C(=O)N2CCCc3ccccc32)sc2nc(-c3ccccc3)cn12` : growth inhibition was -8.77

Recorded result, `COc1ccccc1C(=O)Nc1nnc(-c2ccc(Cl)cc2)o1` , growth inhibition: -2.96

What the record says about `CCOC(=O)c1cc(-c2nnc(-c3ccc(Cl)cc3)o2)c(C)nc1C` : growth inhibition is -16.3

###

# viability increase values compiled below
EXPERIMENT_DESCRIPTION: viability gain of MRP-1-high H69AR cells under doxorubicin, pilot screen, MRP-1 activator project, CellTiter-Glo, duplicate (AID 807);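 note: compound pretreatment 18-22 h then 72 h combined with doxorubicin; 0% = doxorubicin alone and 100% = vehicle without doxorubicin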
TEST_PARAMETERS: H69AR viability with doxorubicin, CellTiter-Glo luminescence; at 10 µM; hits give high values
Could you give me the number in %? Just the number is fine.

Some compounds with recorded viability increase:
C=CCOc1cccc(C2c3c(oc4ccc(F)cc4c3=O)C(=O)N2CCCN2CCOCC2)c1 (stereo not drawn)	-5.54
COc1cc(NC(=O)Cc2ccccc2)cc(OC)c1	-2.51
CC1(C(=O)NC2CCCCC2)CCC(=O)N1Cc1cccnc1 (stereo not drawn)	-0.54
COc1ccc(-n2c(Cn3c(=O)sc4ccccc43)nnc2SCC(=O)N2CCOCC2)cc1	0.3

Shift focus to the following entry.
Sample `Cc1noc(/C=C/N(C)C)c1S(=O)(=O)N1CCN(c2ccccc2)CC1` ; viability increase observed: -2.94

###

EXPERIMENT_DESCRIPTION: growth suppression of PTEN-deleted HCT116, pilot screen, cell-based, HCT116 clonal line, CellTiter-Glo (AID 824);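 note: 0% = 20 µM Hyamine control and 100% = vehicle cell control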
TEST_PARAMETERS: 60 h, at 10 µM, hits give low values
Records with an inconclusive call do not appear.
REPORTED_METRIC: viability (%)
Give your result in % as a bare value.

Examples with answers:
CCOC(=O)CCc1c(C)n(CC)c2ncnn2c1=O	101
OCCCc1nc2ccccc2n1CCOc1ccccc1	94.6
COc1ccc(OC)c(S(=O)(=O)n2nc(-c3ccccc3)cc2N)c1	103
Cc1c2cnn(-c3ccccc3)c(=O)c2c(C)n1CCCC(=O)N1CCN(C)CC1	96.2
CCN1CCN(C(CNS(=O)(=O)c2ccc(OC)cc2)c2cccnc2)CC1 (centres undefined)	98.2

For reference, reported viability for Cc1onc(-c2ccccc2Cl)c1C(=O)N1CCCCC1C(=O)O (centres undefined) stands at 98.6

Short answer for O=C1OC(Nc2nc3ccccc3s2)c2ccccc21 (centres undefined) : viability was 101

Sample `CC(C)C(=O)N1CCN(c2ccccc2N)CC1` ; viability observed: 95.8

Item: `Cc1nnc(SCC(=O)Nc2ccc3c(c2)OCO3)o1` | viability: 95.1

Kindly note the recorded viability for `O=c1c(N2CCOCC2)nsnc1N1CCOCC1` , which is 95.8

`O=C(CN(c1ccc(F)cc1)S(=O)(=O)c1ccc2c(c1)OCCO2)N1CCOCC1` has a reported viability of 104

For `CCN1CCN(S(=O)(=O)c2ccc3[nH]c(=O)oc3c2)CC1` the molecule record lists viability as 107

In plain terms, `C=C(C)c1cccc(C(C)(C)NC(=O)N2CCN(c3ccccn3)CC2)c1` has a documented viability of 89.6

molecule `CCCC(=O)Nc1nc2ccc(OC)cc2s1` , viability observed: 80.7

viability reading for `c1ccc(OCCSc2ncnc3nc[nH]c23)cc1` : 87.4

Kindly note the recorded viability for `CCCN(CCC)C(=O)COc1cc(=O)n(CC)c2ccccc12` , which is 89.3

Entry `Cc1cccc(OCC(=O)Nc2ccc3c(c2)OCO3)c1C` , viability reported as 103

Measured viability, CCN1C(=O)NC(c2cccnc2)C(C(=O)OC)=C1C (centres undefined) : 99.9

Field viability (entry `CCOC(=O)c1nc2nc(C)cc(=O)n2[nH]1` ) reads 97.7

Record summary for `Cn1cccc1Cc1nnc(SCC(=O)NCc2ccccc2Cl)n1-c1ccc(F)cc1` : reported viability = 86.5

Sure, the documented viability for `O=C(CCS(=O)(=O)c1cccc2nonc12)NCCc1ccccc1` is 99.1

Field viability (entry `CN(C)CCNC(=O)c1ccc(CS(=O)(=O)c2c(Cl)cccc2Cl)o1` ) reads 97.6

// viability value for `Cc1c(C(=O)N2CCN(C(=O)c3ccco3)CC2)sc2nc(-c3ccc(F)cc3)cn12` : 89.3

For `CCOC(=O)c1c(C)[nH]c(C(=O)CSc2nnnn2-c2ccccc2)c1C` the molecule record lists viability as 93.4
